This collection of values is drawn from the Human Domainome abundance scans (Beltran et al. 2025).

Collected abundance fitness values appear next to each entry.
B1: POU domain, class 5, transcription factor 1, residues 134 to 212; numbered along this chain, Q01860 (parent)
chain: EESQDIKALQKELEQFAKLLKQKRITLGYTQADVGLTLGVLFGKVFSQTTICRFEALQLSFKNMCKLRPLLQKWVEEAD

Variants of: B1
Assay: abundance fitness (aPCA) (normalised: wild type 0, dead -1); higher = more abundant; growth selection in yeast, the domain comes from the species named
Settings: Homo sapiens
Could you respond with only the numeric value?

Example results:
- A56V: -0.464
- L20R: -0.299

Look up abundance fitness for this variant: `T49E`
0.186

Look up abundance fitness for this variant: `M64Y`
-1.06

Look up abundance fitness for this variant: `Q4E`
-0.13

Look up abundance fitness for this variant: `A78S`
-0.13

Look up abundance fitness for this variant: `F46E`
-0.293

Look up abundance fitness for this variant: `I51V`
-0.48

Look up abundance fitness for this variant: `L57R`
-0.234

Look up abundance fitness for this variant: `K62S`
0.041
